TESTED ON: T1, human interleukin-23 receptor (IL23R) (human, UniProt Q5VWK5 24-355, limits assumed)
T1 construct: also called human IL23R
T1 sequence (looked up): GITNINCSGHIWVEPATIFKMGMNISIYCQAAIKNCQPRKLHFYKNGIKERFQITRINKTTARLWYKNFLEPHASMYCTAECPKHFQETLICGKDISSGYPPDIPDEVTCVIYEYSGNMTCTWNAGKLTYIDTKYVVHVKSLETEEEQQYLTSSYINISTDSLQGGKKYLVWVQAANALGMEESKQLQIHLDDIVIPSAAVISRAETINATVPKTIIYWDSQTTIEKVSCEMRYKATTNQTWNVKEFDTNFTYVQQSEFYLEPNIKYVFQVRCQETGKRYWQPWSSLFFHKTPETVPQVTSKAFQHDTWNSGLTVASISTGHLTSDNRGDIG
PROTOCOL: SPR, scFv (summary table)
Property: pKd; scope: individual binders
Quick note: pKd values are minus log10 of concentrations in mol/L.

Would you please look over these solved cases?
BINDER	pKd
Vκ3/VH1B consensus (uncapped), human IL23R specific scFv (scFv, scFv VL-linker-VH, made in E. coli; Vκ framework IV (uncapped, full consensus); also called Vκ3VH1B uncapped) scFv: DIVLTQSPATLSLSPGERATLSCQASENIYSFLAWYQQKPGQAPRLLIYSASKLAAGVPARFSGSGSGTDFTLTISSLEPEDFAVYYCQQTNRYSNPDIYNVFGQGTKVEIKRGGGGSGGGGSGGGGSGGGGSQVQLVQSGAEVKKPGASVKVSCKASGIDFNSNYYMCWVRQAPGQGLEWMGCIYVGSHVNTYYANWAKGRVTMTRDTSISTAYMELSSLRSEDTAVYYCATSGSSVLYFKFWGQGTLVTVSS	9.34
Vκ1/VH6 consensus λ-capped, human IL23R specific scFv (scFv, scFv VL-linker-VH, made in E. coli; also called Vκ1VH6 capped) scFv: DIQMTQSPSSLSASVGDRVTITCQASENIYSFLAWYQQKPGKAPKLLIYSASKLAAGVPSRFSGSGSGTDFTLTISSLQPEDFATYYCQQTNRYSNPDIYNVFGGGTKLTVLGGGGGSGGGGSGGGGSGGGGSQVQLQQSGPGLVKPSQTLSLTCAISGIDFNSNYYMCWIRQSPGRGLEWLGCIYVGSHVNTYYANWAKGRITINPDTSKNQFSLQLNSVTPEDTAVYYCATSGSSVLYFKFWGQGTLVTVSS	9.61
Vκ3/VH5 consensus λ-capped, human IL23R specific scFv (scFv, scFv VL-linker-VH, made in E. coli; also called Vκ3VH5 capped) scFv: DIVLTQSPATLSLSPGERATLSCQASENIYSFLAWYQQKPGQAPRLLIYSASKLAAGVPARFSGSGSGTDFTLTISSLEPEDFAVYYCQQTNRYSNPDIYNVFGGGTKLTVLGGGGGSGGGGSGGGGSGGGGSEVQLVQSGAEVKKPGESLKISCKGSGIDFNSNYYMCWVRQMPGKGLEWMGCIYVGSHVNTYYANWAKGQVTISADKSISTAYLQWSSLKASDTAMYYCATSGSSVLYFKFWGQGTLVTVSS	9.06

Query string: Can you share its pKd? I mean this binder: Vκ3/VH4 consensus (uncapped), human IL23R specific scFv (scFv, scFv VL-linker-VH, made in E. coli; Vκ framework IV (uncapped, full consensus); also called Vκ3VH4 uncapped) scFv: DIVLTQSPATLSLSPGERATLSCQASENIYSFLAWYQQKPGQAPRLLIYSASKLAAGVPARFSGSGSGTDFTLTISSLEPEDFAVYYCQQTNRYSNPDIYNVFGQGTKVEIKRGGGGSGGGGSGGGGSGGGGSQVQLQESGPGLVKPSETLSLTCTVSGIDFNSNYYMCWIRQPPGKGLEWIGCIYVGSHVNTYYANWAKGRVTISVDTSKNQFSLKLSSVTAADTAVYYCATSGSSVLYFKFWGQGTLVTVSS
Result string: 9.86

Query string: Can you share its pKd? I mean this binder: Vκ2/VH5 consensus (uncapped), human IL23R specific scFv (scFv, scFv VL-linker-VH, made in E. coli; Vκ framework IV (uncapped, full consensus); also called Vκ2VH5 uncapped) scFv: DIVMTQSPLSLPVTPGEPASISCQASENIYSFLAWYLQKPGQSPQLLIYSASKLAAGVPDRFSGSGSGTDFTLKISRVEAEDVGVYYCQQTNRYSNPDIYNVFGQGTKVEIKRGGGGSGGGGSGGGGSGGGGSEVQLVQSGAEVKKPGESLKISCKGSGIDFNSNYYMCWVRQMPGKGLEWMGCIYVGSHVNTYYANWAKGQVTISADKSISTAYLQWSSLKASDTAMYYCATSGSSVLYFKFWGQGTLVTVSS
Result string: 9.52
